These measurements were taken from the Human Domainome abundance scans (Beltran et al. 2025).

B1: Zinc finger homeobox protein 3, residues 2643 to 2698; numbered along this chain, Q15911 (parent)
chain: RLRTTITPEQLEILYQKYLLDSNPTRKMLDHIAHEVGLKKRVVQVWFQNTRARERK

Variants of: B1
Test: abundance fitness (aPCA) (normalised: wild type 0, dead -1); higher = more abundant; growth selection in yeast, the domain comes from the species named
Conditions: Homo sapiens
readout: abundance fitness
Answers are plain numbers.

Solved cases (3 shown):
• P8K = -0.352
• V45H = -0.001
• H34P = -0.739

Each variant below has a reported value. Please supply its abundance fitness.
1. T50I
2. E9Y
3. L14S
4. I32D
5. L14M
6. H31N
7. Y18H

A)
[-0.247, -0.286, -0.763, -1.02, -0.17, 0.315, -1.03]

I have 7 variants here; please give me abundance fitness for each one.
1. Y18F
2. T4V
3. I32P
4. P8S
5. R1A
6. A52L
7. E12N

A)
1. 0.251
2. -0.106
3. -0.915
4. -0.09
5. 0.267
6. -0.317
7. -0.074

Would you mind listing abundance fitness for each of the following variants?
1. E35W
2. K17L
3. N49A
4. T7G
5. K39G
6. R26A

A)
-0.509
-0.303
-0.2
-0.072
0.178
0.434
